Molecular target: CNOT7 (Homo sapiens, UniProt Q9UIV1)
Construct: biotin (biotinylated); purchased Ichor Life Sciences
Sequence (Q9UIV1 whole entry): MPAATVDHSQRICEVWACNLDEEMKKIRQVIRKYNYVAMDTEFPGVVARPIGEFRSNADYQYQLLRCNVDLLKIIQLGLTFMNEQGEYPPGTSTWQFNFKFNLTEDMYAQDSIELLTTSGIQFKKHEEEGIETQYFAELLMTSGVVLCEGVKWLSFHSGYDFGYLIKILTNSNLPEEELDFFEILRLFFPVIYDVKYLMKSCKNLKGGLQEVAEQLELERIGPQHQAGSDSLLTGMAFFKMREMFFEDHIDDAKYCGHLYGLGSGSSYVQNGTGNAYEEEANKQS
Assay: Binding of compounds to CNOT7 by surface plasmon resonance (SPR)
Settings: dissociation constant by SPR, Table 7
pKd: −log10 of the molar value.
MEASURE NAME: pKd

Recorded pKd, per entry:
COc1ccc(C(C)NC(=O)C(CCOCCOCCOCCn2cc(CCc3ccc(NC(=O)Nc4nc(CC(=O)N5CCN(C)CC5)cs4)cc3)nn2)Sc2nc(=O)[nH]cc2Cl)c(F)c1 (stereo not drawn)    < 4.60
C#CCOCCOCCOCCOC[C@H]1Cc2cc(OC)ccc2[C@@H](C)N1C(=O)CSc1nc(=O)[nH]cc1Cl    < 4.60

Look up pKd: COc1ccc(CNC(=O)[C@@H](COCCOCCOCCN=[N+]=[N-])Sc2nc(=O)[nH]cc2C)c(F)c1 4.60 to 6.00

###

In this section we review reported Kd values for a set of compounds.
Molecular target: CNOT7 (Homo sapiens)
Construct: biotin (biotinylated); purchased Ichor Life Sciences
Assay: Binding of compounds to CNOT7 by surface plasmon resonance (SPR)
Conditions: dissociation constant by SPR, Table 7

Example compounds with recorded Kd:
Cc1c[nH]c(=O)nc1SCC(=O)N[C@@H](C)c1ccc2c(c1)CC(=O)N2    1 to 25 µM
CC#CCNC(=O)CCC(Sc1nc(=O)[nH]cc1C)C(=O)NCc1ccc(OC)cc1 (centres unmarked)    > 25 µM
COC[C@@H](Sc1nc(=O)[nH]cc1C)C(=O)N[C@@H](C)c1ccc2c(c1)CC(=O)N2    1 to 25 µM
COc1ccc([C@@H](C)NC(=O)CSc2nc(=O)[nH]cc2Cl)c(F)c1    1 to 25 µM
COc1ccc2c(c1)C[C@@H](COCCOCCOCCOCc1cn(CCOc3ccc(NC(=O)Nc4nc(CC(=O)N5CCN(C)CC5)cs4)cc3)nn1)N(C(=O)CSc1nc(=O)[nH]cc1C)C2    > 25 µM

What does the record list as Kd for C#CCOCCOCCOCC(Sc1nc(=O)[nH]cc1Cl)C(=O)NC(C)c1ccc(OC)cc1F (centres unmarked) ? 1 to 25 µM

// same read-out, input: Cc1c[nH]c(=O)nc1S[C@H](COCCOCCOCCN=[N+]=[N-])C(=O)NCc1ccc2c(c1)CC(=O)N2 1 to 25 µM

Next record, please: COC[C@H](Sc1nc(=O)[nH]cc1C)C(=O)N[C@@H](C)c1ccc2c(c1)CC(=O)N2 1 to 25 µM

###

Biological target: CNOT7 (Homo sapiens)
Construct: biotin (biotinylated); purchased Ichor Life Sciences
Assay: Binding of compounds to CNOT7 by surface plasmon resonance (SPR)
Details: Table 5; dissociation constant for CNOT7 by SPR
pKd: −log10 of the molar value.
MEASURE NAME: pKd

Reference set, count: 2
Cc1c[nH]c(=O)cc1SCC(=O)NCc1ccc2c(c1)NC(=O)CO2    < 4.60
C[C@@H](NC(=O)CSc1nc(=O)[nH]cc1Cl)c1ccc(Cl)c(F)c1    4.60 to 6.00

Look up pKd for this compound: COc1ccc(CNC(=O)COc2nc(=O)[nH]cc2C)cc1 < 4.60

Also, COc1ccc([C@@H](C)NC(=O)CSc2[nH]c(=O)[nH]c(=O)c2C)cc1 please. < 4.60
